assay: in vivo; conditions: both, NIH, mouse, in vivo, LD50
Counter-ions that a name gives are not always drawn.
Attribute measured: LD50 at 14 days

> print(dat)
                                   molecule  experimental.value
1  O=C(O)Cc1ccc(-c2ccccc2)cc1 [biphenyl acetic ammonia butantriol salt]         > 940 mg/kg
